Assay: Inhibition of Escherichia coli IspE

>  <compound>
CCS(=O)(=O)NCC#Cc1cn(C2CCCS2)c(=O)nc1N (stereo unspecified)

>  <IC50 [µM]>
6

$$$$

---

Test: Competitive inhibition of Escherichia coli IspG expressed in Escherichia coli BL21(DE3) using MEcPP as substrate preincubated for 10 mins followed by substrate addition by Michaelis-Menten equation analysis
pIC50: −log10 of the molar value.
parameter: pIC50

>  <compound>
C#CCOP(=O)(O)OP(=O)(O)O [PROP-2-YNYL DIPHOSPHATE]

>  <recorded result>
6.12

$$$$

---

Assay: Inhibition of Escherichia coli IspE by CDP-ME-coupled photometric analysis

>  <smiles text>
Nc1ccn([C@@H]2O[C@H](CNC(=O)CCc3nc4ccccc4[nH]3)[C@@H](O)[C@H]2O)c(=O)n1

>  <IC50 / µM>
1670

$$$$
